# Test Target: Src kinase (Homo sapiens)
# Sequence (P12931 whole entry): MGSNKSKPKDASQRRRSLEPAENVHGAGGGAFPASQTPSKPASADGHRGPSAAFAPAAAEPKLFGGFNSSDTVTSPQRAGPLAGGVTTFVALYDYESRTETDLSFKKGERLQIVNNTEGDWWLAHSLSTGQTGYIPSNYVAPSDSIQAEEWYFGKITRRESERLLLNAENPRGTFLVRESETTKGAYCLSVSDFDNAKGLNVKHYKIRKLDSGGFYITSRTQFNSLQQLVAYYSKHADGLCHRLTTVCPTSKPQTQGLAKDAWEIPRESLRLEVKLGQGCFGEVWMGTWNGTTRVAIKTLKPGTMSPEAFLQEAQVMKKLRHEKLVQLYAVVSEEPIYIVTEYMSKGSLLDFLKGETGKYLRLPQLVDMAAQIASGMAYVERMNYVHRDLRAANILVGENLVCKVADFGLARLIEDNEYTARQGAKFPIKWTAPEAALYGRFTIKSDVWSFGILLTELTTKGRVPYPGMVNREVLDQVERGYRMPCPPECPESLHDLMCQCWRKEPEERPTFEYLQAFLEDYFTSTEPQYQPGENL
# Method: Z'-LYTE kinase inhibition, Src
# Conditions Used: Src IC50 (nM), Table 4
Assay Readout: IC50 (nM)
One number for each entry, in nM.

Study these solved cases before continuing.
COc1ccc(-c2c(C)n(C(C)(C)C)c3ncnc(N)c23)c(C)c1 (atropisomer, axis not shown; (Ra)) [(Ra)-7] = 3320
COc1ccc(C)c(-c2c(Cl)n(C(C)(C)C)c3ncnc(N)c23)c1 (atropisomer, axis not shown; (Ra)) [(Ra)-1] = 4550
COc1ccc(-c2c(CN)n(C(C)(C)C)c3ncnc(N)c23)c(C)c1 (single isomer, unassigned) [(Ra)-8] = 5290

Each of the following entries comes with a recorded value; kindly state IC50 for each.
1. COc1ccc(-c2c(C)n(C(C)(C)C)c3ncnc(N)c23)c(C)c1 (atropisomer, axis not shown; (Sa)) [(Sa)-7]
2. COc1ccc(C)c(-c2c(Cl)n(C(C)(C)C)c3ncnc(N)c23)c1 (atropisomer, axis not shown; (Sa)) [(Sa)-1]
3. COc1ccc(C)c(-c2c(C)n(C(C)(C)C)c3ncnc(N)c23)c1 (single isomer, unassigned) [(Sa)-5]

## Result
[4750, 4090, 4100]
